B1: tRNA (parent)
chain: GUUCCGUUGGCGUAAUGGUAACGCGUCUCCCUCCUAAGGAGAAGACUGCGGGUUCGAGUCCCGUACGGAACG

Variants of: B1
Assay: yeast fitness relative to wild type (ratio to wild type); higher = fitter; tRNA-Arg(CCU), competitive growth, 37 C, YPD
This sample holds only a part of the variants without activity.
Observed property: yeast fitness
// no unit, no text: just the number

I have this variant here, U16A G48U , and I need its recorded yeast fitness.
0.754

Any idea what its yeast fitness is? The variant is A14U G38C C46A
0.551

Consider the variant C29G G38C G44A and give its measured yeast fitness.
0.668

# yeast fitness lookup, item U2G A42U U47A
0.738

What does the record list as yeast fitness for A14C ?
0.868

Would you kindly share the measured yeast fitness for U16C G58A U59C ?
0.555

Query (variant): C55A A70U ; field requested: yeast fitness
0.658

Give its yeast fitness value. Item: U26G G48C
0.805

Return reported yeast fitness; argument: A15G C49G C55G
0.577

May I ask what yeast fitness has been recorded for C22A C60A ?
0.659
